tested on: SF-539 CNS; assay: NCI-60 one-dose screen, 48 h (100 = growth as untreated, 0 = no growth, -100 = all killed); details: 10 µM unless noted
Compounds without any hit were thinned out: in the full panel of roughly 83,000, 20% have a hit.
Assay Readout: growth (%)
Your answer should be a plain number; it is taken to be in %.

Given item CCCCCCC/C=C/[C@H]1O[C@]2(O)C(=O)C=C3C[C@@H](O[C@@H]4O[C@H](CO)[C@@H](O)C(O)[C@@H]4O)C[C@@H]3[C@H]2C=C1C (stereo not given in full) , the value recorded as its growth is -43.7

Short answer for COc1ccc(CNCCN2C(=O)c3ccc4c5c(ccc(c35)C2=O)C(=O)N(CCNCc2ccc(OC)cc2)C4=O)cc1 : growth was -77.3

growth reported for this molecule c1ccc(-c2nnc(Nc3ccc4c(c3)OCCO4)o2)c(NCc2ccncc2)c1 : -2.94

// COc1ccc(Cl)cc1NC(=O)c1c(NC(=O)C(F)(F)C(F)(F)F)sc2c1CCCCC2 : growth value = 4.26

Form: molecule = O=C(NNc1nc(Cl)nc(N2CCN(C(c3ccccc3)c3ccccc3)CC2)n1)c1ccccc1 ; growth = -33

----------
test system: BT-549 breast; experiment: NCI-60 one-dose screen, 48 h (100 = growth as untreated, 0 = no growth, -100 = all killed); conditions: 10 µM unless noted
The panel holds about 83,000 compounds, 20% with a hit somewhere; the sample as a whole holds those more often.
Assay Readout: growth (%)
Unit % implied. Number only.

Form: molecule = CN1CCN(CC#CCNC(=O)[C@]23CCC(C)(C)C[C@H]2C2=CC[C@@H]4[C@@]5(C)Cc6c([nH]c7ccccc67)C(C)(C)[C@@H]5CC[C@@]4(C)[C@]2(C)CC3)CC1 ; growth = 101

The molecule listed as COc1cc(NCC(O)CN(CC(C)C)C2CCCC2)c2ncccc2c1 (stereo not given) has a reported growth of 89.5

Measured growth of Cc1c([N+](=O)[O-])cc(C(C)(C)C)cc1[N+](=O)[O-] : 102

The molecule COc1ccc(C(=O)/C=C/c2ccc(OCc3ccccc3)c(OC)c2)cc1OC showed growth equal to 51.8

Quick note, growth for Cc1ccccc1C(c1ccccc1)c1ccccc1C landed at 86.1

So for COc1nc(N)nc(-n2c(-c3ccc(C)cc3)nc3ccccc32)c1NCc1ccc(C)cc1 , the logged growth turned out to be 101

----------
system: MOLT-4 leukemia; assay: NCI-60 one-dose screen, 48 h; settings: 10 µM unless noted
Compounds without any hit were thinned out: in the full panel of roughly 83,000, 20% have a hit. Activity calls are given as the source filed them. How the source made its calls: active means growth percent below 10; inactive means the rest.
Answer with one of the outcomes given here: class 1 for active, class 0 for inactive

N#Cc1c(Nc2ccccc2)nn2cc(-c3nc4ccccc4s3)c(N)nc12 :: class 0

Ask | What did this assay record as the result for CC(C)(C)OC(=O)N1CCN(c2ccc(N)cc2)C(=O)C1 ?
Reply | class 0

Ask | Status in this test for COc1ccc(C(=O)/C=C/c2cn(Cc3ccc(Cl)cc3)c3ccccc23)cc1 ?
Reply | class 0

Ask | Hi, do you know how COc1ccc2c(Nc3ccc(NS(C)(=O)=O)cc3)c3ccccc3nc2c1 came out in this test?
Reply | class 1

Ask | Entry CCOC(=O)C1=C(C)NC(C)=C(C(=O)OCC)C1c1cc(Br)c(O)c(OC)c1 : call = ?
Reply | class 0

Ask | Called result for CN1CCCC1=Nc1ccccc1
Reply | class 0
